- procedure.text: qHTS assay to identify small molecule antagonists of the peroxisome proliferator-activated receptor gamma (PPARg) signaling pathway - cell viability counter screen (AID 743194); note: nearly all actives have a fitted effect of over 55% in size
- condition.description: PPARg-bla HEK293H viability, CellTiter-Glo luminescence, 17 h, co-treated with 50 nM rosiglitazone; series mostly up to 62.6 µM
Results filed as inconclusive are left out. Calls of active or inactive are those of the source. Calls come from the whole dose curve; as a rule, active = well fitted cell-killing curve with a large enough effect in the repeat runs; inconclusive = weak or mixed curves, or effect the other way; inactive = no such curve, though single readings can be large or run the other way.
Labels: t for active, f for inactive

[
  {
    "compound.structure": "Oc1ccccc1",
    "qualitative.label": "f"
  },
  {
    "compound.structure": "CCCC[P+](CCCC)(CCCC)CCCC",
    "qualitative.label": "f"
  },
  {
    "compound.structure": "NC1CCCCC1",
    "qualitative.label": "f"
  },
  {
    "compound.structure": "Nc1ccc2c(c1)CN1C(=O)c3ccccc3C1=N2",
    "qualitative.label": "f"
  },
  {
    "compound.structure": "Cc1ncc([N+](=O)[O-])n1C",
    "qualitative.label": "f"
  },
  {
    "compound.structure": "Cc1cc(C)nc(NS(=O)(=O)c2ccc(N)cc2)n1",
    "qualitative.label": "f"
  },
  {
    "compound.structure": "Cc1cccc(C)c1",
    "qualitative.label": "f"
  },
  {
    "compound.structure": "CN(C)C(=S)SC(=S)N(C)C",
    "qualitative.label": "f"
  },
  {
    "compound.structure": "Cc1c(C(=O)O)c(O)cc2c1C(=O)c1c(O)c([C@@H]3O[C@H](CO)[C@@H](O)[C@H](O)[C@H]3O)c(O)c(O)c1C2=O",
    "qualitative.label": "f"
  },
  {
    "compound.structure": "C=CCc1ccc(O)c(OC)c1",
    "qualitative.label": "f"
  },
  {
    "compound.structure": "Cc1ncc([N+](=O)[O-])n1CCO",
    "qualitative.label": "f"
  },
  {
    "compound.structure": "Nc1c2c(nc3ccccc13)CCCC2",
    "qualitative.label": "f"
  },
  {
    "compound.structure": "F[B-](F)(F)F",
    "qualitative.label": "f"
  },
  {
    "compound.structure": "CCCCOC(=O)c1ccc(O)cc1",
    "qualitative.label": "f"
  },
  {
    "compound.structure": "CCCCCCCC(=O)OCC(COC(=O)CCCCCCC)OC(=O)CCCCCCC",
    "qualitative.label": "f"
  },
  {
    "compound.structure": "O=S1(=O)OC(c2ccc(O)cc2)(c2ccc(O)cc2)c2ccccc21",
    "qualitative.label": "f"
  },
  {
    "compound.structure": "COc1ccc2cc(S(=O)(=O)N[C@H](CC(=O)N[C@H](Cc3ccc(CN4[C@H](C)CCC[C@@H]4C)cc3)C(=O)N(C)C(C)C)c3ccc4c(c3)OCO4)ccc2c1",
    "qualitative.label": "t"
  }
]

###

- procedure.text: qHTS assay to identify small molecule agonists of the hypoxia (HIF-1) signaling pathway - cell viability counter screen (AID 1224844); note: nearly all actives have a fitted effect of over 50% in size
- condition.description: HRE-bla ME-180 viability, CellTiter-Glo luminescence, 17 h; series mostly up to 76.8 µM
Results filed as inconclusive are left out. Active and inactive are the calls of the source. Calls follow the shape of the full dose curve.
Labels: active, inactive

[
  {
    "compound.structure": "CN(C)C(=O)Nc1ccc(Cl)c(Cl)c1",
    "qualitative.label": "inactive"
  },
  {
    "compound.structure": "NS(=O)(=O)c1cc2c(cc1Cl)NCNS2(=O)=O",
    "qualitative.label": "inactive"
  },
  {
    "compound.structure": "CC/C(=C(\\c1ccccc1)c1ccc(OCCN(C)C)cc1)c1ccccc1",
    "qualitative.label": "active"
  },
  {
    "compound.structure": "C/C=C/C=C/C(=O)O",
    "qualitative.label": "inactive"
  },
  {
    "compound.structure": "Nc1ccc(S(N)(=O)=O)cc1",
    "qualitative.label": "inactive"
  },
  {
    "compound.structure": "Oc1ccccc1",
    "qualitative.label": "inactive"
  },
  {
    "compound.structure": "CCCc1cc(=O)[nH]c(=S)[nH]1",
    "qualitative.label": "inactive"
  }
]

###

- procedure.text: qHTS assay for identifying genotoxic compounds that show differential cytotoxicity against isogenic chicken DT40 cell lines with known DNA damage response pathways - Rad54/Ku70 mutant cell line (AID 743015); note: nearly all actives have a fitted effect of over 60% in size
- condition.description: DT40 Rad54/Ku70 mutant viability, CellTiter-Glo, 40 h; series mostly up to 66.8 µM
- Source text: National Center for Advancing Translational Sciences [NCATS] NIH Chemical Genomics Center [NCGC] U.S. Environmental Protection Agency [EPA] National Institutes of Environmental Health Sciences [NIEHS] National Toxicology Program [NTP] U.S. Food and Drug Administration [FDA] DNA repair pathways play a critical role in cellular homeostasis by repairing DNA damage induced by endogenous processes and xenobiotics. […]
Inconclusive results are not listed. Active and inactive are the calls of the source. Calls come from the whole dose curve; as a rule, active = well fitted cell-killing curve with a large enough effect in the repeat runs; inconclusive = weak or mixed curves; inactive = no such curve, though single readings can be large or run the other way.
Labels: active, inactive

[
  {
    "compound.structure": "CCN(Cc1c(F)cccc1Cl)c1c([N+](=O)[O-])cc(C(F)(F)F)cc1[N+](=O)[O-]",
    "qualitative.label": "active"
  },
  {
    "compound.structure": "F[B-](F)(F)F",
    "qualitative.label": "inactive"
  },
  {
    "compound.structure": "CCN(CC)C(=O)c1cccc(C)c1",
    "qualitative.label": "inactive"
  },
  {
    "compound.structure": "Nc1ccc([N+](=O)[O-])cc1O",
    "qualitative.label": "active"
  },
  {
    "compound.structure": "CS(=O)(=O)OCCCCOS(C)(=O)=O",
    "qualitative.label": "inactive"
  },
  {
    "compound.structure": "COc1ccc2cc(S(=O)(=O)N[C@H](CC(=O)N[C@H](Cc3ccc(CN4[C@H](C)CCC[C@@H]4C)cc3)C(=O)N(C)C(C)C)c3ccc4c(c3)OCO4)ccc2c1",
    "qualitative.label": "active"
  },
  {
    "compound.structure": "Cc1ccc(S(=O)(=O)O)cc1",
    "qualitative.label": "inactive"
  },
  {
    "compound.structure": "O=CC(=O)c1ccccc1",
    "qualitative.label": "inactive"
  },
  {
    "compound.structure": "Nc1c(N=Nc2ccc(-c3ccc(N=Nc4cc(S(=O)(=O)O)c5ccccc5c4N)cc3)cc2)cc(S(=O)(=O)O)c2ccccc12",
    "qualitative.label": "active"
  },
  {
    "compound.structure": "CN1CCC[C@H]1c1cccnc1",
    "qualitative.label": "inactive"
  },
  {
    "compound.structure": "NC(CO)(CO)CO",
    "qualitative.label": "inactive"
  },
  {
    "compound.structure": "COc1ccc(CN(CCN(C)C)c2ccccn2)cc1",
    "qualitative.label": "inactive"
  }
]

###

- procedure.text: qHTS assay to identify small molecule antagonists of the sonic hedgehog signaling (Shh) pathway (AID 1259369); note: nearly all actives have a fitted effect of over 45% in size
- condition.description: NIH/3T3 Gli1-Luc reporter, Shh antagonist, luminescence 24 h; series mostly up to 92.4 µM
Records with an inconclusive call do not appear. Calls of active or inactive are those of the source. Calls come from the whole dose curve.
Labels: active, inactive

[
  {
    "molecule": "F[B-](F)(F)F",
    "qualitative.label": "inactive"
  },
  {
    "molecule": "CCOc1ccc(NC(C)=O)cc1",
    "qualitative.label": "inactive"
  },
  {
    "molecule": "O=C1NC(=O)C(c2ccccc2)(c2ccccc2)N1",
    "qualitative.label": "inactive"
  },
  {
    "molecule": "CCOC(N)=O",
    "qualitative.label": "inactive"
  },
  {
    "molecule": "C=CCc1ccc(O)c(OC)c1",
    "qualitative.label": "inactive"
  },
  {
    "molecule": "CS(=O)(=O)OCCCCOS(C)(=O)=O",
    "qualitative.label": "inactive"
  },
  {
    "molecule": "CC(=O)Nc1c(I)c(NC(C)=O)c(I)c(C(=O)O)c1I",
    "qualitative.label": "inactive"
  },
  {
    "molecule": "CN1CCC[C@H]1c1cccnc1",
    "qualitative.label": "inactive"
  },
  {
    "molecule": "CC/C(=C(\\c1ccccc1)c1ccc(OCCN(C)C)cc1)c1ccccc1",
    "qualitative.label": "active"
  },
  {
    "molecule": "Cc1cn([C@H]2C=C[C@@H](CO)O2)c(=O)[nH]c1=O",
    "qualitative.label": "inactive"
  },
  {
    "molecule": "C=C(C)C(=O)OCC(C)O (centres undefined)",
    "qualitative.label": "inactive"
  },
  {
    "molecule": "Cc1cccc(C)c1",
    "qualitative.label": "inactive"
  },
  {
    "molecule": "C/C=C/C=C/C(=O)O",
    "qualitative.label": "inactive"
  },
  {
    "molecule": "CC(=O)C(=O)O",
    "qualitative.label": "inactive"
  }
]

Data origin, for the record: PubChem BioAssay (Tox21)
